Tested Target: human GLP-1R (Homo sapiens, UniProt P43220, G168S)
Sequence (P43220 24-463 G168S limits assumed): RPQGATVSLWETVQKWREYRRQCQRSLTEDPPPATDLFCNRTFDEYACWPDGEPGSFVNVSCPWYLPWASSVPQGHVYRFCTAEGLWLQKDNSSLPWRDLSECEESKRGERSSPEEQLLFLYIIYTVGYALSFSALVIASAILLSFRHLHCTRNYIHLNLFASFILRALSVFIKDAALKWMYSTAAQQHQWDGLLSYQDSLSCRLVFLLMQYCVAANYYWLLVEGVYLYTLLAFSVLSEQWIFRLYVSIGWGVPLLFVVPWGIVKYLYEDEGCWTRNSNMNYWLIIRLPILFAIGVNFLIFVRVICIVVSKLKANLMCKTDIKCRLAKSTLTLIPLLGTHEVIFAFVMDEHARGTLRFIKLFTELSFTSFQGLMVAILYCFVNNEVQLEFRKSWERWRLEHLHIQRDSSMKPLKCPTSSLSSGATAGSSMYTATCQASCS
Procedure Details: CHO GLP-1R Clone H6 - Assay 1 (HTRF cAMP agonist assay)
Assay Context: CHO GLP-1R Clone H6, cAMP HTRF; geometric mean
Readout Kind: EC50 (nM)

[a] CC1(c2ccc(Cl)cc2F)Oc2cccc(C3CCN(Cc4nc5ccc(C(=O)O)cc5n4C[C@H]4CCCO4)CC3)c2O1 (stereo partly drawn) [Example 64]
[b] COCCn1c(CN2CCN(c3cccc4c3OC(c3ccccc3)O4)CC2)nc2ccc(C(=O)O)cc21 (stereo not drawn) [Example 23]
[c] Cc1nccn1CCn1c(CN2CCC(c3cccc4c3OC(C)(c3ccc(Cl)cc3F)O4)CC2)nc2ccc(C(=O)O)cc21 (stereo not drawn) [Example 62]
(Q) Could you please order the items by EC50, going from the lowest number to the highest? Arrange the labels as the request states and list them.
(A) c, a, b
(c: 2.2 nM, a: 9.2 nM, b: 680 nM)
